Values compiled from ChEMBL document CHEMBL1137326.

Test system: trypsin
Experiment: Stability against cleavage by trypsin after 24 hrs by enzymatic digestion assay
Format: ADME
Conditions: human, read-out: Activity
property_name: remaining at 24 h

# input compound: CC(C)C[C@@H]1NC(=O)[C@H](CCCCN)NC(=O)[C@H](Cc2ccc(O)cc2)NC(=O)CNC(=O)C2CSSCC(NC1=O)C(=O)N[C@@H](Cc1c[nH]cn1)C(=O)N1C[C@H](O)C[C@H]1C(=O)N[C@H](C(=O)O)CSSC[C@H](NC(=O)[C@@H](NC(=O)CNC(=O)[C@@H](N)CC(N)=O)C(C)C)C(=O)N2 (stereo partly specified) ; wanted: its remaining at 24 h
< 55%
